- MEASUREMENT_PROTOCOL: Permeability (transport study) across bEnd3 monoculture model
- ASSAY_CONTEXT: mouse
OBSERVATION_TYPE: Papp at 60 min (×10⁻⁶ cm/s)
Give the value, in units of ×10⁻⁶ cm/s, as a plain number.

Known Papp at 60 min results, listed for orientation:
C=C[C@H]1C[N@@]2CC[C@H]1C[C@@H]2[C@@H](O)c1ccnc2ccc(OC)cc12    26.8
CC(C)NCC(O)COc1cccc2ccccc12 (stereo not shown)    29.7
COC(=O)c1ccccc1-c1c2ccc(=N)cc-2oc2cc(N)ccc12    22.3

The molecule identified as "C[C@H]1O[C@@H](O[C@H]2[C@@H](O)C[C@H](O[C@H]3[C@@H](O)C[C@H](O[C@H]4CC[C@@]5(C)[C@H](CC[C@@H]6[C@@H]5C[C@@H](O)[C@]5(C)[C@@H](C7=CC(=O)OC7)CC[C@]65O)C4)O[C@@H]3C)O[C@@H]2C)C[C@H](O)[C@@H]1O" registered its Papp at 60 min at 6.24
